- System: SN12C
- Experimental Details: NCI tumour cell line growth inhibition, 48 h
Activity calls are given as the source filed them. No stated cut-off is given here; in the data, active = GI50 up to about 1.1 µM and inactive = higher.
Select the matching outcome among active, inactive

Solved entries:
Nc1nccc(NCC2(CO)CC(CCc3ccccc3)C2)n1 (centres undefined) | inactive
CN(C)CCNC(=O)c1cccc2c(NCCN(C)C)c3ccccc3nc12 | inactive
CC(/C=C/C(=O)c1sc(-n2nc(-c3ccccc3)cc2-c2ccccc2)nc1C)=C\c1ccccc1 | inactive
COC(=O)C(Cc1cc(OC)c(OC)c(OC)c1)(NC(=O)c1ccccc1)P(=O)(OC)OC (centres undefined) | inactive
S=c1[nH]c(=S)c2nnn(-c3ccccc3)c2[nH]1 | inactive

Ask | Which outcome did this test record for the molecule C/C(CC(O)(C(F)(F)F)C(F)(F)F)=N\NC(N)=S ?
Reply | inactive

Ask | Please state the recorded outcome for this molecule: CCCCCCCCCCCC[N+]12CC[N+](C)(CC1)CC2
Reply | inactive

Ask | For CC1(C)CC(=O)C(C(c2cccc(O)c2O)C2C(=O)CC(C)(C)CC2=O)C(=O)C1 , which call appears in the assay record?
Reply | inactive

Ask | Please state the recorded outcome for this molecule: CN(C)CCCn1cnc2cc(Cl)c(Cl)cc21
Reply | inactive

Ask | For O=Cc1cccc2c1Oc1c(cccc1C(=O)O)S2 , which call appears in the assay record?
Reply | inactive

Ask | I'd appreciate the recorded outcome for O=C1C[C@@H](c2ccccc2)NCCCCN(O)CCCN1 from this test.
Reply | inactive

Ask | Hey, what did the test say about C=C(C(=O)O[C@H]1C(=O)C2=C(C)CCC3C(=C)C(=O)O[C@@H]3C2[C@]1(C)O)C1CC[C@]2(C)CCCC(=C)[C@H]2C1 (some centres undefined) ?
Reply | inactive

Ask | Outcome logged for C=CC(Cl)(CBr)CCC(Br)C(C)(C)Cl (centres undefined) in this assay:
Reply | inactive

Ask | Answer briefly: the call reported for COc1ccc(C2S/C(=C\c3ccccc3)C(=O)N2NC(=O)Cc2ccccc2)cc1 (centres undefined) in this assay.
Reply | inactive

----------
- Tested on: EKVX
- Experimental Details: NCI tumour cell line growth inhibition, 48 h
Activity calls are given as the source filed them. Cut-off read from the data, not from the text of the source: active = GI50 up to about 1.1 µM and inactive = higher.
# GI50 listing for each entry below

Consider the worked cases shown below.
C[C@]12CCc3nonc3C1CC[C@@H]1C2CC[C@]2(C)NC(=O)CCC12 (stereo not given in full) | > 100 µM (inactive)
COCC1OC(OC2OCC3OC4(OCC(O)(C(C)OC)C5OCOC54)OC3C2OC)C(OC)C(O)C1OC1OC(C)C(OC)C(OC2OC(C)C3OC4(CC(O)C(OC5CC(OC6CC(C)([N+](=O)[O-])C(OC)C(C)O6)C(OC(=O)c6c(C)c(Cl)c(O)c(Cl)c6OC)C(C)O5)C(C)O4)OC3(C)C2O)C1O (stereo not given) | > 100 µM (inactive)
Cc1nn(C(=O)c2ccc(Cl)cc2)c2c1C(c1ccc(O)cc1)SC(=N)N2 (stereo not given) | > 10 µM (inactive)
O=C(CCc1nnc(S)[nH]1)Nc1cc(Cl)ccc1Cl | > 100 µM (inactive)

Ask | Given the entry O=[N+]([O-])c1ccc(C2N3CCCCC3[C@H]3CCCCN23)cc1 (stereo not given in full) , report its measured GI50.
Reply | > 100 µM (inactive)

----------
- System: NCI-H460
- Experimental Details: NCI tumour cell line growth inhibition, 48 h
Active and inactive are the calls of the source. Rule as the data show it: active = GI50 up to about 1.1 µM and inactive = higher.
Please reply with one of these outcomes: active, inactive

Solved entries (count: 5):
O=c1n(-c2ccccc2)c(=O)n2n1C1CCC2CC1 | inactive
Cc1cnc(-c2ccccc2)o1 | inactive
CC(C)OC(=O)Nc1cccc(Cl)c1 [CHLORPROPHAM] | inactive
c1csc(-c2csc(-c3ccsc3)c2)c1 | inactive
O=c1[nH]c(=O)n(C2CC(O)C(COP(=O)(OCC(Cl)(Cl)Cl)OCC(Cl)(Cl)Cl)O2)cc1F (configuration not stated) | active

Ask | Please state the recorded outcome for this compound: OC(c1cccs1)c1cc2ccccc2s1 (configuration not stated)
Reply | inactive

Ask | Please indicate how the test categorized C=CCN1C(=O)/C(=C/c2ccc(OC)cc2)N=C1SC/C=C/C .
Reply | inactive
